Assay: chemical genetic growth profiling, strain panel (AID 1159580);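 note: tested at 20 µM; growth read once vehicle control cultures reached saturation at 30 °C; 1 = growth at the plate median or of vehicle wells; lower values mean less growth of the strain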
Settings: S. cerevisiae deletion strains, growth OD, locus YLR342W, strain FKS1 (second series), active compounds read low
Out of some 5,500 compounds screened, about 2,000 (36%) were called active. Inconclusive results (about 18%) are left out. Some of the results follow.
For each record, write down the corresponding normalized growth.

Tell me the measured normalized growth of CC1COc2c(N3CCN(C)CC3)c(F)cc3c(=O)c(C(=O)O)cn1c23 (stereo not drawn) , please. 1 (inactive)

Entry CN1C2C[C@H](OC(=O)[C@H](CO)c3ccccc3)C[C@H]1[C@@H](O)C2 please 1.02 (inactive)

Entry O=S(=O)(O)CCS please 0.989 (inactive)

Entry COc1ccc(C(c2ccc(OC)cc2)C(Cl)(Cl)Cl)cc1 please 0.975 (inactive)

Entry CCC1(O)CC(OC2CC(N(C)C)C(OC3CC(O)C(OC4CCC(=O)C(C)O4)C(C)O3)C(C)O2)c2c(cc3c(c2O)C(=O)c2c(O)cccc2C3=O)C1C(=O)OC (stereo not drawn) please 0.976 (inactive)

Entry CC1CCc2cc(F)cc3c(=O)c(C(=O)O)cn1c23 (stereo not drawn) please 0.978 (inactive)

Entry C[C@]12CCC(=O)C=C1C=CC1C2CC[C@@]2(C)C1CC[C@@]21CCC(=O)O1 (stereo partly drawn) please 0.785 (active)

Entry C[C@@H]1O[C@@H](O[C@H]2[C@H](Oc3cc(O)c4c(=O)cc(-c5ccc(O)cc5)oc4c3)O[C@H](CO)[C@@H](O)[C@@H]2O)[C@H](O)[C@H](O)[C@H]1O please 1.01 (inactive)

Entry Clc1ccc(C(c2ccc(Cl)cc2)C(Cl)(Cl)Cl)cc1 please 1.04 (inactive)

Entry COC(=O)/C=C/C(C)=C/C=C/C(C)=C/C=C/C=C(C)/C=C/C=C(C)/C=C/C(=O)O please 1.01 (inactive)

Entry COc1ccc2c(c1)OC1(O)COc3cc(OC)c(OC)cc3C1=C2 (stereo not drawn) please 0.91 (inactive)

Entry CN1C2CCC1CC(OC(c1ccccc1)c1ccccc1N)C2 (stereo not drawn) please 1.02 (inactive)

Entry O=C1NCC2(CCN(CCc3ccccc3)CC2)O1 please 1.01 (inactive)

Entry CC[C@@]1(O)C[C@H](O[C@H]2C[C@H](N(C)C)[C@H](O)[C@H](C)O2)c2c(cc3c(c2O)C(=O)c2c(O)cccc2C3=O)[C@H]1C(=O)OC please 0.769 (active)

Entry Cc1[nH]c2ccccc2c1CN(C)C please 1.02 (inactive)

Entry C=C[C@@](C)(O)CCC1C(=C)CCC2[C@@](C)(CO)CCC[C@]12C (stereo partly drawn) please 0.883 (inactive)

Entry CC1(C)S[C@@H]2[C@H](NC(=O)[C@H](N)c3ccccc3)C(=O)N2[C@H]1C(=O)O please 1.01 (inactive)

Entry Cc1ccccc1C(OCCN(C)C)c1ccccc1 (stereo not drawn) please 1 (inactive)

Entry COc1cc([C@@H]2c3cc4c(cc3C(OC3O[C@@H]5COC(C)O[C@H]5[C@H](O)[C@H]3O)C3COC(=O)[C@@H]32)OCO4)cc(OC)c1O (stereo partly drawn) please 1.01 (inactive)

Entry CCn1cc(C(=O)O)c(=O)c2cc(F)c(N3CCNCC3)nc21 please 1.03 (inactive)

Entry Cc1ccc(S(=O)(=O)NC(=O)NN2CCCCCC2)cc1 please 0.941 (inactive)

Entry O=C(O)CCCc1ccc(N(CCCl)CCCl)cc1 please 0.96 (inactive)

Entry C/C=C(\C)C(=O)O[C@H]1C[C@@H](OC(C)=O)[C@@]2(C(=O)OC)CO[C@@H]3C2[C@]12CO[C@](O)(C(=O)OC)[C@H]2[C@](C)(C12O[C@@]1(C)[C@H]1C[C@@H]2OC2OC=C[C@@]21O)[C@@H]3O (stereo partly drawn) please 1.05 (inactive)

Entry CN1C2CCC1CC(OC(c1ccccc1)c1ccccc1)C2 (stereo not drawn) please 0.842 (inactive)

Entry CC[C@H]1OC(=O)[C@H](C)[C@@H](O[C@H]2C[C@@](C)(OC)[C@@H](O)[C@H](C)O2)[C@H](C)[C@@H](O[C@@H]2O[C@H](C)C[C@H](N(C)C)[C@H]2O)[C@](C)(OC)C[C@@H](C)C(=O)[C@H](C)[C@@H](O)[C@]1(C)O please 0.956 (inactive)

Entry CC[C@@]1(O)C[C@H](O)c2c(cc3c(c2O)C(=O)c2c(O)ccc(O)c2C3=O)[C@H]1C(=O)OC please 0.857 (inactive)

Entry CNC(=O)O/N=C(\C)SC please 1.02 (inactive)

Entry COc1ccc(C(=O)O)cc1OC please 1.07 (inactive)

Entry OCC(O)CN1CCN(c2ccccc2)CC1 (stereo not drawn) please 1.02 (inactive)

Entry CN(C)CCOC(c1ccc(Cl)cc1)c1ccccn1 (stereo not drawn) please 0.95 (inactive)

Entry CCCCCCC(C)OC(=O)COc1cc(Cl)c(Cl)cc1Cl (stereo not drawn) please 1.05 (inactive)

Entry CCCCNC(=O)NS(=O)(=O)c1ccc(C)cc1 please 1.01 (inactive)

Entry C=C1C2CC[C@@]3(C)[C@H](c4ccoc4)OC(=O)C[C@]13O[C@H]1CC(=O)C(C)(C)[C@H](C(OC(C)=O)C(=O)OC)[C@@]21C (stereo partly drawn) please 0.978 (inactive)

Entry COc1ccc(CN(CCN(C)C)c2ccccn2)cc1 please 0.995 (inactive)

Entry CCCCCCCCCCC[C@@H](C[C@H]1OC(=O)[C@H]1CCCCCC)OC(=O)[C@@H](CC(C)C)NC=O please 1.02 (inactive)

Entry CC(=O)O[C@H]1C[C@@H](OC(C)=O)C(C)(C)C2CC(=O)[C@]3(C)C(CC[C@@]4(C)[C@H](C(=O)O)OC(=O)C5OC543)[C@]21C (stereo partly drawn) please 0.972 (inactive)

Entry CCCCC[C@H]1C(=O)O[C@H](C)[C@H](NC(=O)c2cccc(NC=O)c2O)C(=O)O[C@@H](C)[C@@H]1OC(=O)CC(C)C please 0.887 (inactive)

Entry C=C[C@@](C)(O)CCC1C(=C)C[C@H](O)C2C(C)(C)CCCC12C (stereo partly drawn) please 0.985 (inactive)
